Values were extracted from patent US20240034757A1.

# TESTED TARGET: T1, CXCL3_HUMAN (human, UniProt P19876 35-107)
# T1 sequence: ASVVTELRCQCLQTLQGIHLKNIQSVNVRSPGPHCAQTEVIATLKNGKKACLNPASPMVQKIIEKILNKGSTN
# METHOD NOTES: BLI
OUTCOME MEASURE: Kd (nM)
Value expressed in nM; do not type the unit.

Lookup: I'd like to know its Kd. The binder in question is P943_IXORI (other) RSKQPTASQSSKNSIKAEFCDTNCTQGTNGAWSGCSEGCFCVHVGNNTKGRCMKLSSDYDYTTQ
Found: 270
